The origin of these recorded values is ChEMBL document CHEMBL1128026.

Target: Protein farnesyl/geranylgeranyl transferase (Homo sapiens) (UniProt P49354+P49356+P53609)
Test: Ratio of the inhibitory activity of GGTase to that of FTase
Assay type: protein-complex assay
measuredProperty: Ratio

Example cases with answers are listed next.
CSCC[C@H](NC(=O)[C@H](Cc1ccccc1)c1cccc(NC(=O)[C@@H](N)CS)c1)C(=O)O    1.21
CSCC[C@H](NC(=O)[C@@H](CCCNC(=O)[C@@H](N)CS)Cc1cccs1)C(=O)O    638
CSCC[C@H](NC(=O)[C@H](CCCNC(=O)[C@@H](N)CS)Cc1cc(F)cc(F)c1)C(=O)O    61.9

[I] CSCC[C@H](NC(=O)c1cccc(CNC[C@@H](N)CS)c1)C(=O)O
[II] CSCC[C@H](NC(=O)[C@@H](CCCNC(=O)[C@@H](N)CS)Cc1cc(F)cc(F)c1)C(=O)O
Task item: Select the item whose Ratio value is smaller, choosing between I and II . State the label of the item chosen.
Reply: I
(I: 17.7, II: 68.8)
